I'd be grateful if you could share measured NanoBRET Fold Response for these entries.
# TESTED ON: VIPR2 (Homo sapiens, UniProt P41587)
# Construct: purchased Promega (in-house HiBiT-GPCR construct library, NanoBRET)
# Sequence (P41587 24-438): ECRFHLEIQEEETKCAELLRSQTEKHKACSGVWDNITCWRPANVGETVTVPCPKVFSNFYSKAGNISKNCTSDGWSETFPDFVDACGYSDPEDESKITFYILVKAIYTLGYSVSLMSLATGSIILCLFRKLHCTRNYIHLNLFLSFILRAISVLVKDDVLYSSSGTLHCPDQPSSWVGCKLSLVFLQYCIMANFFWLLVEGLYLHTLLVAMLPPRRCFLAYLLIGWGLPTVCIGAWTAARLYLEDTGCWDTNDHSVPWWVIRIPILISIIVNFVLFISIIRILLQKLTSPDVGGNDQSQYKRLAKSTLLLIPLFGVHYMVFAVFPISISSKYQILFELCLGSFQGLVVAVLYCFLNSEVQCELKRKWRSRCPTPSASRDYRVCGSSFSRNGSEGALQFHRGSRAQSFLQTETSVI
# METHOD SUMMARY: NanoBRET screen HiBiT-VIPR2 in HEK293
# Type: binding
# DETAILS: VIPR2; tracer 1μM
Answers are plain numbers.

>>> reported_measurement("CC(C)N(CC[C@H](c1ccccc1)c1cc(CCNC(=O)c2ccc(CNC(=O)CCc3ccc4n3[B-](F)(F)[N+]3=C(c5ccc[nH]5)C=CC3=C4)cc2)ccc1O)C(C)C [Tolterodine-BZ-NB590]")
1.07
>>> reported_measurement("Cc1cc2c(s1)Nc1ccccc1N=C2N1CCN(CCCNC(=O)CCOCCOCCOCCOCCNC(=O)CCc2ccc3n2[B-](F)(F)[N+]2=C(c4ccc[nH]4)C=CC2=C3)CC1 [Olanzapine-a-2-NB590]")
1.05

Could you tell me NanoBRET Fold Response for each of these molecules? They are listed below.
1. O=C(CCc1ccc2n1[B-](F)(F)[N+]1=C(c3ccc[nH]3)C=CC1=C2)NCCOCCOCCNC(=O)OCCOCCN1CCN(C2=Nc3ccccc3Sc3ccccc32)CC1 [Quetiapine-a-2-NB590]
2. CCCn1c(=O)c2[nH]c(-c3ccc(OCC(=O)NCCNC(=O)CCOCCNC(=O)c4ccc(CNC(=O)CCc5ccc6n5[B-](F)(F)[N+]5=C(c7ccc[nH]7)C=CC5=C6)cc4)cc3)nc2n(CCC)c1=O [XAC-3-NB590]
3. Cc1nc2n(c(=O)c1CCN1CCC(c3noc4cc(F)ccc34)CC1)CCCC2OC(=O)NCCOCCOCCOCCOCCNC(=O)CCc1ccc2n1[B-](F)(F)[N+]1=C(c3ccc[nH]3)C=CC1=C2 (centres unmarked) [Risperidone-2-NB590]

Output:
1: 0.96; 2: 0.91; 3: 0.91

* * *

# TESTED ON: PTGFR (Homo sapiens)
# Construct: purchased Promega (in-house HiBiT-GPCR construct library, NanoBRET)
# Sequence (P43088 whole entry): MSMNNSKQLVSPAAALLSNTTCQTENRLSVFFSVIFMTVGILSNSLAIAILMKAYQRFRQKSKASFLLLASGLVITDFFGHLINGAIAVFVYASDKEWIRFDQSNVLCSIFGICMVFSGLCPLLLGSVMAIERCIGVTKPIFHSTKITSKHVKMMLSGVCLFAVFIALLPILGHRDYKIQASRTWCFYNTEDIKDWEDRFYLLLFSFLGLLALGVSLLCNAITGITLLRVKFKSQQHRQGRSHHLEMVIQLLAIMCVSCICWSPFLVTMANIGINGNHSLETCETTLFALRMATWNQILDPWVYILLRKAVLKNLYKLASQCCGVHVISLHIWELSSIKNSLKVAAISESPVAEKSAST
# METHOD SUMMARY: NanoBRET screen HiBiT-PTGFR in HEK293
# Assay type: binding
# DETAILS: PTGFR; tracer 0.1μM
Would you kindly list NanoBRET Fold Response for each of these molecules?
Give bare numbers.

Below: 2 molecules and their reported NanoBRET Fold Response.
>>> reported_measurement("O=C(CCc1ccc2n1[B-](F)(F)[N+]1=C(c3ccc[nH]3)C=CC1=C2)NCCOCCOCCNC(=O)OCCOCCN1CCN(C2=Nc3ccccc3Sc3ccccc32)CC1")
1.00
>>> reported_measurement("COc1ccccc1N1CCN(CCCCN2C(=O)c3ccc(CNC(=O)CCOCCNC(=O)c4ccc(CNC(=O)CCc5ccc6n5[B-](F)(F)[N+]5=C(c7ccc[nH]7)C=CC5=C6)cc4)cc3C2=O)CC1")
0.96

Input: Which NanoBRET Fold Response reading was recorded for the molecule "CCCn1c(=O)c2[nH]c(-c3ccc(OCC(=O)NCCNC(=O)CCOCCNC(=O)c4ccc(CNC(=O)CCc5ccc6n5[B-](F)(F)[N+]5=C(c7ccc[nH]7)C=CC5=C6)cc4)cc3)nc2n(CCC)c1=O" ?
Output: 1.02

* * *

# TESTED ON: C3AR1 (Homo sapiens, UniProt Q16581)
# Construct: purchased Promega (in-house HiBiT-GPCR construct library, NanoBRET)
# Sequence (Q16581 whole entry): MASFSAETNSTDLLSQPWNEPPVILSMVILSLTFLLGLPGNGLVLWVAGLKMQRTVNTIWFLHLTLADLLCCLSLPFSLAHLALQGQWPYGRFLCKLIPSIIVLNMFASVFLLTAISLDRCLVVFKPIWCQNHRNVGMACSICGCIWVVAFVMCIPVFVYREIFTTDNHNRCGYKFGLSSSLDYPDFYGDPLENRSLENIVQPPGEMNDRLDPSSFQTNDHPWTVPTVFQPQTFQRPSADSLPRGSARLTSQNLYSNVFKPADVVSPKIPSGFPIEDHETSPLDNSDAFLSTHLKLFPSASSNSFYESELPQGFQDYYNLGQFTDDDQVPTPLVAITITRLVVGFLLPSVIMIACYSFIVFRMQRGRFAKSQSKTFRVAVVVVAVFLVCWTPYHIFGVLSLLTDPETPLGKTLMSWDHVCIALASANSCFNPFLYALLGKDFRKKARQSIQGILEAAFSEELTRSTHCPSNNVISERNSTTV
# METHOD SUMMARY: NanoBRET screen HiBiT-C3AR1 in HEK293
# Type: binding
# DETAILS: C3AR1; tracer 1μM
Provide the recorded NanoBRET Fold Response for the entries that follow.
Numbers only.

Would you please look over these solved cases?
>>> reported_measurement("Cc1nc2n(c(=O)c1CCN1CCC(c3noc4cc(F)ccc34)CC1)CCCC2OC(=O)NCCOCCOCCOCCOCCNC(=O)CCc1ccc2n1[B-](F)(F)[N+]1=C(c3ccc[nH]3)C=CC1=C2 (stereo not drawn)")
0.98
>>> reported_measurement("N#CN=C(NCCCOc1cccc(CN2CCCCC2)c1)NCCNC(=O)CCOCCOCCOCCOCCNC(=O)CCc1ccc2n1[B-](F)(F)[N+]1=C(c3ccc[nH]3)C=CC1=C2")
1.04

Could you tell me NanoBRET Fold Response for each of these compounds? They are listed below.
1. CC(C)N(CC[C@H](c1ccccc1)c1cc(CCNC(=O)CCOCCOCCOCCOCCNC(=O)CCc2ccc3n2[B-](F)(F)[N+]2=C(c4ccc[nH]4)C=CC2=C3)ccc1O)C(C)C
2. O=C(CCc1ccc2n1[B-](F)(F)[N+]1=C(c3ccc[nH]3)C=CC1=C2)NCc1ccc(C(=O)NCCOCCC(=O)N[C@@H]2CC[C@@]3(O)[C@H]4Cc5ccc(O)c6c5[C@@]3(CCN4CC3CC3)[C@H]2O6)cc1 [Naltrexone-3-NB590]
3. O=C(CCc1ccc2n1[B-](F)(F)[N+]1=C(c3ccc[nH]3)C=CC1=C2)NCCOCCOCCNC(=O)OCCOCCN1CCN(C2=Nc3ccccc3Sc3ccccc32)CC1
4. O=C(CCOCCOCCOCCOCCNC(=O)CCc1ccc2n1[B-](F)(F)[N+]1=C(c3ccc[nH]3)C=CC1=C2)NCCCN1CCN(C2=Nc3ccccc3Oc3ccc(Cl)cc32)CC1

Output:
[1.01, 1.02, 1.02, 1.08]
